Reference source: PubChem BioAssay

Catalogue of composite z-score values
Method Notes: binders from COS7 lysate, DM2A8 probe, primary screen, torsin A project, cell lysate, small-molecule microarray, fluorescence 635/667 (AID 1065)
Recorded Conditions: higher = more signal, COS7 lysate expressing mutant human TOR1A
Form: value (number only, do not type unit).

Check out these entries, answers already filled in.
Compound	Result Value
C=CC[C@H](OC(=O)Nc1ccc(OC)cc1)c1ccc(O)c2ccccc12	0.38
COc1ccc([Si](C)(C)[C@@H]2[C@@H](CCO)O[C@]3(C(=O)N(Cc4cccc(N5C(=O)c6cccc7cccc5c67)c4)c4ccccc43)[C@H]2C)cc1	-0.106
CC(=O)n1cc(C(O)C2C=CC3C(=O)N(c4ccccc4)C(=O)C3N2Nc2ccccc2)c2ccccc21 (centres undefined)	0.489

// below: composite z-score requested for another compound
composite z-score reported for this compound `COCCCNC(=O)[C@@]1(Sc2ccc(C)cc2)CC(=O)N(C2Cc3ccccc3C2)[C@@H]1c1ccc(CO)cc1I` : -0.247

* * *

Experimental System: Torsin-1A-interacting protein 1 (Homo sapiens) (UniProt Q5JTV8)
Sequence (Q5JTV8 whole entry, looked up): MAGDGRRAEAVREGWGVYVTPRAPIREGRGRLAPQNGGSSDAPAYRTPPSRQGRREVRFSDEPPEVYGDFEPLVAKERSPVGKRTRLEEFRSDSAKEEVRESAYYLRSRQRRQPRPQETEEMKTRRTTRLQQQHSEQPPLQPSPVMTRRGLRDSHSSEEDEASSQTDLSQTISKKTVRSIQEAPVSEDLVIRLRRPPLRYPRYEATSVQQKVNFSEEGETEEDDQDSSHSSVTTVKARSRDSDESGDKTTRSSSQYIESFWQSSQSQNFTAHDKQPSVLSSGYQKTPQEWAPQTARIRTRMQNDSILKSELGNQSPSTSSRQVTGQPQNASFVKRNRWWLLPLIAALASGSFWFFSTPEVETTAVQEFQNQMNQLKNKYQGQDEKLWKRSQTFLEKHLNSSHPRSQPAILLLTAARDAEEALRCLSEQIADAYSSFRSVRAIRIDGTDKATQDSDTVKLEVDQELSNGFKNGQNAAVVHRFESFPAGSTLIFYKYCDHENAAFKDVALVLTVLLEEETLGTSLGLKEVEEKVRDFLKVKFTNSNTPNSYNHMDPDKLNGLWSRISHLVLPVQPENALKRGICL
Method Notes: LAP1 binders from COS7 cell lysate, primary screen, small-molecule microarray, 635/667 nm fluorescence (AID 1116)
Recorded Conditions: COS7-hLAP1 lysate binding, 635 nm fluorescence, higher = more signal
Property: composite z-score
Keep the answer to the number alone.

Compound	Property	Result Value
COCCCNC(=O)[C@]1(CCC(=O)OC(C)(C)C)N=C(c2ccc(OCCCO)cc2)O[C@@H]1c1ccccc1	composite z-score	1.49

Field composite z-score (system: Torsin-1A-interacting protein 1 (Homo sapiens) (UniProt Q5JTV8)) for entry `Cc1ccc(S[C@]2(C(=O)NC(C)C)CC(=O)N(Cc3ccccc3C(F)(F)F)[C@@H]2c2ccc(CO)cc2I)cc1` = -0.0123

* * *

Experimental System: Carbonic anhydrase 2 (Homo sapiens)
Method Notes: CAII small-molecule binders, profiling panel, biochemical, small-molecule microarray, Alexa647-labelled CAII (AID 1122)
Recorded Conditions: CAII-A647 binding fluorescence, higher = more signal
Property: composite z-score
Output spec: single numeric token, no unit.

// below: answered compounds
Compound	composite z-score
CN1C(=O)C2C(C1=O)C1C=C(c3ccc(CO)cc3)C2C(c2cccs2)N1Cc1cccc(OC(F)(F)F)c1 (centres undefined)	0.47
COCCCNC(=O)[C@@]1(Sc2ccc(C)cc2)CC(=O)N(C2Cc3ccccc3C2)[C@@H]1c1ccc(CO)cc1I	0.871
CN(C)C(=O)[C@@]1(Cc2ccccc2N=[N+]=[N-])COC(c2ccc(OCCCO)cc2)=N1	0.71

Attention now shifts to the item below.
composite z-score recorded for this compound, `CCOC(=O)[C@H]1C/C=C/C[C@H](C(=O)OCC)C(=O)O[C@H]2[C@@H](OC)O[C@H](CO)[C@@H](OC(=O)CCc3ccccc3)[C@@H]2OC1=O` , is -0.207

* * *

Method Notes: P. aeruginosa biofilm formation inhibitors, primary screen, strain PAO1, LB-PBS medium, absorbance 600 nm (AID 1176); further: test concentration not given here
Recorded Conditions: P. aeruginosa PAO1 growth/biofilm, A600, 12 h; higher = more signal
Property: z-score
Give a plain numeric answer without units written out.

Answered cases to consult:
Compound	z-score
C=CCN1C(=O)[C@@]2(O[C@@H](CCn3cc([C@H](O)c4ccccc4)nn3)[C@H]([Si](C)(C)c3ccc(OC)cc3)[C@H]2C)c2ccccc21	0.626
COc1ccc([Si](C)(C)[C@H]2[C@H](CCn3cc(CCO)nn3)O[C@@]3(C(=O)N(Cc4ccc(N5C(=O)c6cccc7cccc5c67)cc4)c4ccccc43)[C@@H]2C)cc1	0.519
CC(C)CN1C(=O)[C@@]2(Cc3ccccc31)c1ccccc1C(=O)N(Cc1ccccc1C(F)(F)F)[C@H]2c1ccc(CO)cc1	-0.103
CC(C)(C)OC(=O)CC[C@]1(C(=O)O)N=C(c2ccc(OCCCO)cc2)O[C@H]1c1ccccc1	-0.76
CCOc1cc(C(O)C2C=CC3C(=O)N(C)C(=O)C3N2N2CCCCC2)ccc1O (centres undefined)	0.614
[N-]=[N+]=NCc1ccccc1C[C@@]1(C(=O)NCCN2CCOCC2)N=C(c2ccc(OCCCO)cc2)O[C@@H]1c1ccccc1N=[N+]=[N-]	0.124
CCC[C@@H]1C[C@@]1(CCC)[C@@H](NP(=O)(c1ccccc1)c1ccccc1)c1ccc(Cl)cc1	0.439
CCCC=C(CCC)[C@@H](NP(=O)(c1ccccc1)c1ccccc1)c1ccc(C(F)(F)F)cc1	-0.511
C[C@]1(C(=O)NC2CC2)c2ccccc2C(=O)N(Cc2ccc(OC(F)(F)F)cc2)[C@H]1c1ccc(CO)cc1	-0.109
COC(=O)[C@@]1(Cc2ccc(OC)cc2)[C@H]2c3cc(C(=O)N(C)C)n(CCc4c[nH]c5ccc(O)cc45)c3C[C@H]2CN1C(=O)c1ccccc1	0.15

Now for another entry.
// recorded z-score for `O=C1O[C@@H](c2ccccc2)[C@@H](c2ccccc2)N2[C@@H](c3ccccc3OCCO)[C@]3(C(=O)Nc4ccc(C#CCCO)cc43)[C@@H](C(=O)Nc3nc4ccccc4s3)[C@H]12` : 0.986
